system-name: EGFR Ex19del T790M (Homo sapiens, UniProt P00533, DEL746-750/T790M)
Construct: expressed in transfected cells; host or cells: Ba/F3
protocol-text: Ba/F3 drug screening, Cell Titer Glo, IC50 Mut/WT
Format: cell-based
test-settings: T790M-like-3S, 72 hours
Given measured ratio of IC50 for cells with mutant EGFR to IC50 for cells with wildtype EGFR (Mut/WT), output 1 if it is greater than or equal to 0.01 and -1 if not.

Solved entries:
{"compound-structure-string": "CNC(=O)CN1CCC(Oc2cc3c(Nc4cccc(Cl)c4F)ncnc3cc2OC)CC1", "category": 1}
{"compound-structure-string": "C=CC(=O)Nc1cc(Nc2nccc(-c3c[nH]c4ccccc34)n2)c(OC)cc1N(C)CCN(C)C", "category": 1}
{"compound-structure-string": "C=CC(=O)Nc1cc(Nc2ncc(C(=O)OC(C)C)c(-c3cn(C)c4ccccc34)n2)c(OC)cc1N(C)CCN(C)C", "category": 1}

Dear colleague, could you confirm whether CN(C)C/C=C/C(=O)Nc1cc2c(Nc3ccc(Cl)c(Br)c3)ncnc2cn1 has ratio of IC50 for cells with mutant EGFR to IC50 for cells with wildtype EGFR (Mut/WT) at or above 0.01? 1

Check COc1cc2ncnc(Nc3ccc(F)c(Cl)c3)c2cc1NC(=O)/C=C/CN1CCCCC1 too. 1

C=CC(=O)N1CC[C@@H](Oc2nc(Nc3ccc(N4CCC(N5CCN(C)CC5)CC4)cc3)c(C(N)=O)nc2CC)C1 , same question. -1

Try the compound C=CC(=O)N[C@H]1C=C(C)c2c(-c3cnc4ccccc4c3)c3c(N)ncnc3n2C1 -1

* * *

system-name: EGFR S768dupSVD (Homo sapiens, UniProt P00533, DUP768-770)
Construct: expressed in transfected cells; host or cells: Ba/F3 cells, retroviral pBabe-Puro vector
protocol-text: Ba/F3 drug screening, Cell Titer Glo, IC50 Mut/WT
Type: cell-based
test-settings: Ex20, 72 hours
Measured ratio of IC50 for cells with mutant EGFR to IC50 for cells with wildtype EGFR (Mut/WT) by item
Returns: the value as a bare number; no unit string appended.

Known results for molecules:
{"compound-structure-string": "C=CC(=O)N1CC[C@@H](Oc2nc(Nc3ccc(N4CCC(N5CCN(C)CC5)CC4)cc3)c(C(N)=O)nc2CC)C1", "system-name": "EGFR S768dupSVD (Homo sapiens, UniProt P00533, DUP768-770)", "val": 1.135}
{"compound-structure-string": "Cc1cc(C(=O)Nc2nc3cccc(Cl)c3n2[C@@H]2CCCCN(C(=O)/C=C/CN(C)C)C2)ccn1", "system-name": "EGFR S768dupSVD (Homo sapiens, UniProt P00533, DUP768-770)", "val": 0.4008}

Recorded ratio of IC50 for cells with mutant EGFR to IC50 for cells with wildtype EGFR (Mut/WT) of COc1cc2ncnc(Nc3ccc(F)c(Cl)c3)c2cc1NC(=O)/C=C/CN1CCCCC1 , please. 0.882

Here is the next molecule: C=CC(=O)N[C@H]1C=C(C)c2c(-c3cnc4ccccc4c3)c3c(N)ncnc3n2C1 0.05773

* * *

The entries below come with measured ratio of IC50 for cells with mutant EGFR to IC50 for cells with wildtype EGFR (Mut/WT) values attached.
system-name: EGFR Ex19del (Homo sapiens, UniProt P00533, DEL746-750)
Construct: expressed in transfected cells; host or cells: Ba/F3 cells, retroviral pBabe-Puro vector
protocol-text: Ba/F3 drug screening, Cell Titer Glo, IC50 Mut/WT
Assay type: cell-based
test-settings: Classical-Like, 72 hours
Simply state the number, no unit and no words.

Sample records with ratio of IC50 for cells with mutant EGFR to IC50 for cells with wildtype EGFR (Mut/WT):
{"compound-structure-string": "CN(C)C/C=C/C(=O)Nc1cc2c(Nc3ccc(Cl)c(Br)c3)ncnc2cn1", "system-name": "EGFR Ex19del (Homo sapiens, UniProt P00533, DEL746-750)", "val": 0.01427}
{"compound-structure-string": "C=CC(=O)Nc1cc(Nc2nccc(-c3c[nH]c4ccccc34)n2)c(OC)cc1N(C)CCN(C)C", "system-name": "EGFR Ex19del (Homo sapiens, UniProt P00533, DEL746-750)", "val": 0.03035}

Please turn your attention to the following entry.
Give ratio of IC50 for cells with mutant EGFR to IC50 for cells with wildtype EGFR (Mut/WT) (EGFR Ex19del (Homo sapiens, UniProt P00533, DEL746-750)) of the following compound: Cc1cc(C(=O)Nc2nc3cccc(Cl)c3n2[C@@H]2CCCCN(C(=O)/C=C/CN(C)C)C2)ccn1 0.0005409

* * *

system-name: EGFR L718Q T790M (Homo sapiens, UniProt P00533, L718Q/T790M)
Construct: expressed in transfected cells; host or cells: Ba/F3
protocol-text: Ba/F3 drug screening, Cell Titer Glo, IC50 Mut/WT
Assay type: cell-based
test-settings: T790M-like-3R, 72 hours
Quick list: ratio of IC50 for cells with mutant EGFR to IC50 for cells with wildtype EGFR (Mut/WT) per entry.
Write the value as a bare number.

Field: example entries. Status: answers known.
{"compound": "C=CC(=O)Nc1cccc(Oc2nc(Nc3ccc(N4CCN(C)CC4)cc3)nc3ccsc23)c1 [Olmutinib]", "system-name": "EGFR L718Q T790M (Homo sapiens, UniProt P00533, L718Q/T790M)", "val": 0.3579}
{"compound": "C=CC(=O)N1CC[C@@H](Oc2nc(Nc3ccc(N4CCC(N5CCN(C)CC5)CC4)cc3)c(C(N)=O)nc2CC)C1 [Naquotinib]", "system-name": "EGFR L718Q T790M (Homo sapiens, UniProt P00533, L718Q/T790M)", "val": 1.576}
{"compound": "COc1cc2ncnc(Nc3cccc(Cl)c3F)c2cc1OC(=O)N1CCN(C)C[C@H]1C [AZD3759]", "system-name": "EGFR L718Q T790M (Homo sapiens, UniProt P00533, L718Q/T790M)", "val": 9.625}
{"compound": "Cc1cc(C(=O)Nc2nc3cccc(Cl)c3n2[C@@H]2CCCCN(C(=O)/C=C/CN(C)C)C2)ccn1 [Nazartinib]", "system-name": "EGFR L718Q T790M (Homo sapiens, UniProt P00533, L718Q/T790M)", "val": 0.317}
{"compound": "COc1cc2ncnc(Nc3ccc(F)c(Cl)c3)c2cc1NC(=O)/C=C/CN1CCCCC1 [Dacomitinib]", "system-name": "EGFR L718Q T790M (Homo sapiens, UniProt P00533, L718Q/T790M)", "val": 4.784}

# get_value(readout='ratio of IC50 for cells with mutant EGFR to IC50 for cells with wildtype EGFR (Mut/WT)', item= C=CC(=O)Nc1cc(Nc2nccc(-n3cc(CN(C)C)c(-c4ccccc4)n3)n2)c(OC)cc1N1CCOCC1 [Lazertinib] ) 3.513

Please give the result for C=CC(=O)N[C@H]1C=C(C)c2c(-c3cnc4ccccc4c3)c3c(N)ncnc3n2C1 [TAS 6417] too. 0.02624

Moving on to the next compound: CNC(=O)CN1CCC(Oc2cc3c(Nc4cccc(Cl)c4F)ncnc3cc2OC)CC1 [Sapatinib] 54.78

Same thing, different compound: CN(C)C/C=C/C(=O)Nc1cc2c(Nc3ccc(Cl)c(Br)c3)ncnc2cn1 [Tarlox-TKI] 16.46

Queued: C=CC(=O)Nc1cc(Nc2nccc(-c3c[nH]c4ccccc34)n2)c(OC)cc1N(C)CCN(C)C [AZ5104] 26.6

And for C=CC(=O)Nc1cc(Nc2ncc(C(=O)OC(C)C)c(-c3cn(C)c4ccccc34)n2)c(OC)cc1N(C)CCN(C)C [TAK-788 (mobocertinib), mobocertinib] ? 43.09

* * *

Below, each entry is listed alongside its reported ratio of IC50 for cells with mutant EGFR to IC50 for cells with wildtype EGFR (Mut/WT).
Tested on: EGFR I740dupIPVAK
protocol-text: Ba/F3 drug screening, Cell Titer Glo, IC50 Mut/WT
Format: cell-based
test-settings: PACC; I740dupIPVAK; Ba/F3; 72 hours
The answer should be a number; do not append a unit.

Reference set (3 entries):
{"compound-structure-string": "COc1cc2ncnc(Nc3cccc(Cl)c3F)c2cc1OC(=O)N1CCN(C)C[C@H]1C", "val": 0.08984}
{"compound-structure-string": "CNC(=O)CN1CCC(Oc2cc3c(Nc4cccc(Cl)c4F)ncnc3cc2OC)CC1", "val": 0.008351}
{"compound-structure-string": "COc1cc2ncnc(Nc3ccc(F)c(Cl)c3)c2cc1NC(=O)/C=C/CN1CCCCC1", "val": 0.01376}

Using the record for CN(C)C/C=C/C(=O)Nc1cc2c(Nc3ccc(Cl)c(Br)c3)ncnc2cn1 , report its ratio of IC50 for cells with mutant EGFR to IC50 for cells with wildtype EGFR (Mut/WT). 0.5725
